target: T1, recombinant biotinylated human PAR2 extracellular domain (residues 1-75), N-terminal AviTag, C-terminal Flag … (human, UniProt P55085 26-75, biotin on the AviTag (enzymatic biotinylation)); assay: HTRF competition with Par0067 IgG, pH 7.4, scFv
T1 construct: also called Bio-human-PAR2 ECD; human PAR2 ECD; not shown: N-terminal AviTag (Avidity LLC); C-terminal Flag and poly Histidine tags
T1 sequence (P55085 26-75): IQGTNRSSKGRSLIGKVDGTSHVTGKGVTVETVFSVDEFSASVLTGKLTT
measuredAttribute: IC50 (nM)
Kindly provide the numeric value in nM only, without the unit symbol.

PaB670102 scFv (scFv, V domains shown, purified scFv; also called ZZ1PXS-F08) VH: EVQLLESGGGLVQPGGSLRLSCAASGFTFSSYAMNWVRQAPGKGLEWVSTISYSGSLISYADSVKGRFTISRDNSKNTLYLQMNSLRAEDTAVYYCARINHDPMDHWGQGTLVTVSS VL: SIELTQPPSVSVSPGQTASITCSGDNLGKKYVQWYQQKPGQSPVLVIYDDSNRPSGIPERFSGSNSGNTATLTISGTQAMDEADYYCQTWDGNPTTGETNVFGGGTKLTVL: 5.3

Okay, now this binder:
## Task Which value of IC50 has been reported for PaB670070 scFv (scFv, V domains shown, purified scFv; also called ZZ1KXE-D06) VH: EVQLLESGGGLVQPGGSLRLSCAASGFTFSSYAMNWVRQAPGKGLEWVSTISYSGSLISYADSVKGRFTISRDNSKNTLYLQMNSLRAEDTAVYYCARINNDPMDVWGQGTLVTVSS VL: SIELTQPPSVSVSPGQTASITCSGDNLGKKYVQWYQQKPGQSPVLVIYDDSNRPSGIPERFSGSNSGNTATLTISGTQAMDEADYYCQTWDHNHHTGHTNVFGGGTKLTVL in the records?
## Result 60.4
